# Tested on: SF-295 CNS
# Test method notes: NCI-60 one-dose screen, 48 h
# Reported conditions: 10 µM unless noted
Compounds without any hit were thinned out: in the full panel of roughly 83,000, 20% have a hit. Active and inactive are the calls of the source. How the source made its calls: active means growth percent below 10; inactive means the rest.
The reply should be one of these categories: YES = active, NO = inactive

Use these answered entries as a reference point.
Compound	Tgt	Category
CC(=O)c1nn(-c2ccccc2)c(=Nc2ccccc2)cc1C	SF-295 CNS	NO
Nc1nc(NC2CC2)c2ncn(C3C=CC(CO)C3)c2n1 (stereo unspecified)	SF-295 CNS	NO
Nc1nc2c(c(=O)[nH]1)C1(C(=O)Nc3ccccc31)c1c(nc(N)[nH]c1=O)N2	SF-295 CNS	NO
CC(NC(N)=S)c1ccccc1 (stereo unspecified)	SF-295 CNS	NO
Cc1cc2c(cc1C)[n+](Cc1ccc3ccccc3c1)cn2Cc1ccc2ccccc2c1	SF-295 CNS	YES
c1ccc2nc(Cn3c[n+](Cc4ccc5ccccc5n4)c4ccccc43)ccc2c1	SF-295 CNS	NO
CC[n+]1c(/C=C/c2ccc(N3CCCC3)cc2)cccc1/C=C/c1ccc(N2CCCC2)cc1	SF-295 CNS	YES
COc1cccc(-c2nc3cc(NC(=O)c4ccc(Cl)c(C#N)c4)ccc3o2)c1	SF-295 CNS	NO

Req: Outcome? Cc1cc(-c2ccccc2)cc(C)n1
Resp: NO

Req: Outcome? CCN(CC)CCCCCCCNc1c2ccc(Cl)cc2nc2ccc(OC)cc12
Resp: YES

Req: Outcome? Nc1ccccc1-c1ccn[nH]1
Resp: NO

The reported numbers originate from PubChem BioAssay (NCI).
